B1: KCNG1 (parent)
chain: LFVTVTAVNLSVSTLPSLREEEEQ

variants of: B1; assay: protein stability index of a GFP-peptide fusion (GPS, HEK-293T) (PSI 1-6); higher = more stable; conditions: c terminus: a fixed tail appended;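 also: lentivirally expressed fusions sorted by FACS into six bins by GFP to DsRed ratio, PSI derived from sequencing read proportions per bin multiplied by bin number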
parameterMeasured: protein stability index
Please reply with the value in numeric form only.

Some variants with recorded protein stability index:
| sequenceContent | measValue |
| --- | --- |
| LFVTVTAVQLSVSTLPSLREEEEQ [N9Q] | 2.65 |
| LFVTVTAVNLSVSTLPSLREKEEQ [E21K] | 2.25 |
| LFVTVTAVNLSVSTLPTLREEEEQ [S17T] | 2.22 |

# input Query (variant): LFVTGTAVNLSVSTLPSLREEEEQ [V5G] ; field requested: protein stability index
# output 3.99

# input Query (variant): LFVTVTAVNLSTSTLPSLREEEEQ [V12T] ; field requested: protein stability index
# output 2.05

# input Query (variant): LFVTVTAVNLSVSTLPSLREEEES [Q24S] ; field requested: protein stability index
# output 2.44

# input Query (variant): LFVTVTAVNLSVSTLPSLRTEEEQ [E20T] ; field requested: protein stability index
# output 3.53
